tested target: Olfr599 (Mus musculus)
Sequence (Q8VG01 entry or part of it): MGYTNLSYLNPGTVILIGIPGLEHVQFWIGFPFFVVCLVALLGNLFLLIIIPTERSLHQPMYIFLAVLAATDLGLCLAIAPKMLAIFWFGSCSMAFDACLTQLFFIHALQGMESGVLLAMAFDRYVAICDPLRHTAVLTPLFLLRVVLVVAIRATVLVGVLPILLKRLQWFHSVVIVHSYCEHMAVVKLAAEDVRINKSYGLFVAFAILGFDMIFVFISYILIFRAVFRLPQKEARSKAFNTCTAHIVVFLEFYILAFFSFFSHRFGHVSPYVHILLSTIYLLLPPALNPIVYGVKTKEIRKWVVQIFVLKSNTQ
protocol details: Calcium imaging of HEK293 cells expressing Olfr599
condition context: HEK293 cells, Olfr599

mol: CCCCCCCC(=O)O
output unit: µM
EC50: 70

====

tested target: UniProt:Q920P2
protocol details: Cre-SEAP cAMP reporter assay, HEK293 cells co-expressing untagged Olfr73 and Gs/olf, prolonged odorant
Type: cell-based
condition context: HEK293 long odor, Cre/SEAP, Gs/olf, untagged Olfr73

compound: C=CCc1ccc(O)c(OC)c1 [Eugenol, eugenol]
tested target: UniProt:Q920P2
EC50, µM: 205

====

tested target: mouse Olfr73 (Mus musculus)
Sequence (Q920P2 1-313): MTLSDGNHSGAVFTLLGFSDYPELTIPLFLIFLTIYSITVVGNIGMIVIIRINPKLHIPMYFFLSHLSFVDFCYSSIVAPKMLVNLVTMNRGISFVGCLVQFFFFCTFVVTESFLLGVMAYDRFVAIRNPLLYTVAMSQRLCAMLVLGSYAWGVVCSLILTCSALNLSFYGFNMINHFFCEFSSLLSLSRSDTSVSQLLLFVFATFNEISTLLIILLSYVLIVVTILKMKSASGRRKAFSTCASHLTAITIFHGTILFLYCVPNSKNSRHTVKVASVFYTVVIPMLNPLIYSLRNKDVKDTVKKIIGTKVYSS
protocol details: GCaMP3 calcium imaging of mouse OSNs ectopically expressing Olfr73 (rAAV2/5), 5-s odorant pulse
Assay type: cell-based
condition context: mouse Olfr73-OSNs, Ca2+ (GCaMP3), 5-s odorant pulse; read-out: EC50

mol: C/C=C/c1ccc(OC)c(OC)c1
EC50, µM: 430
